- assayedSystem: human orexin-2 receptor (Homo sapiens)
- Construct: expressed in transfected cells; host or cells: Chinese hamster ovary (CHO) cells, G418 selection
- Sequence (O43614 1-444): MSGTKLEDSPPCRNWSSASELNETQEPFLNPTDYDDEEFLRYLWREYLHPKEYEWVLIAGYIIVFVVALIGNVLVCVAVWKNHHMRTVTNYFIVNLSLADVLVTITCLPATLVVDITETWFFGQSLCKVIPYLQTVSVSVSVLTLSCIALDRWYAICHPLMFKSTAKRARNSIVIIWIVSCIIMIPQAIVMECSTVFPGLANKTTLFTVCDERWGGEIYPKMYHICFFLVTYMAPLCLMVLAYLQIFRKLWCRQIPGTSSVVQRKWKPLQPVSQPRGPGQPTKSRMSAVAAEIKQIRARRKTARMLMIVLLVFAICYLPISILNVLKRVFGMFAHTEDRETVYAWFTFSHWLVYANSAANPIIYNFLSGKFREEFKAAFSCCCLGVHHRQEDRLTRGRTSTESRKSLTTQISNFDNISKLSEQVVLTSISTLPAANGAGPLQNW
- experimentDescription: Intracellular calcium measurements (FLIPR), orexin receptor antagonistic activity
- Format: cell-based
- conditionDescription: FLIPR Tetra, optimized conditions; CHO cells expressing human orexin-2 receptor; 3 nM orexin-A; read-out: OX2 IC50
Recorded pIC50, one value per entry.
Interpret pIC50 as the negative base-10 log of the concentration measured in mol/L.

>>> df
                                   molecule                           assayedsystem  readoutnumber
0  Cc1ccc(-c2sccc2C(=O)N2C[C@@H]3C[C@@H]3[C@H]2CNC(=O)c2cccc3nsnc23)cc1 [Example 274]  human orexin-2 receptor (Homo sapiens)           7.26

Exercise: Which pIC50 reading was recorded for the molecule Cc1ccc(-c2sccc2C(=O)N2C[C@@H]3C[C@@H]3[C@H]2CNC(=O)c2cccc3c2NCCO3)cc1 [Example 266] ?
Solution: 7.72

Exercise: Could you do the same for Cc1cccc(-c2sccc2C(=O)N2C[C@@H]3C[C@@H]3[C@H]2CNC(=O)c2cc3occc3n2C)c1 [Example 282] , please?
Solution: 7.49
